# System: PI3K-gamma (Homo sapiens)
# Sequence (P48736 whole entry, species assumed): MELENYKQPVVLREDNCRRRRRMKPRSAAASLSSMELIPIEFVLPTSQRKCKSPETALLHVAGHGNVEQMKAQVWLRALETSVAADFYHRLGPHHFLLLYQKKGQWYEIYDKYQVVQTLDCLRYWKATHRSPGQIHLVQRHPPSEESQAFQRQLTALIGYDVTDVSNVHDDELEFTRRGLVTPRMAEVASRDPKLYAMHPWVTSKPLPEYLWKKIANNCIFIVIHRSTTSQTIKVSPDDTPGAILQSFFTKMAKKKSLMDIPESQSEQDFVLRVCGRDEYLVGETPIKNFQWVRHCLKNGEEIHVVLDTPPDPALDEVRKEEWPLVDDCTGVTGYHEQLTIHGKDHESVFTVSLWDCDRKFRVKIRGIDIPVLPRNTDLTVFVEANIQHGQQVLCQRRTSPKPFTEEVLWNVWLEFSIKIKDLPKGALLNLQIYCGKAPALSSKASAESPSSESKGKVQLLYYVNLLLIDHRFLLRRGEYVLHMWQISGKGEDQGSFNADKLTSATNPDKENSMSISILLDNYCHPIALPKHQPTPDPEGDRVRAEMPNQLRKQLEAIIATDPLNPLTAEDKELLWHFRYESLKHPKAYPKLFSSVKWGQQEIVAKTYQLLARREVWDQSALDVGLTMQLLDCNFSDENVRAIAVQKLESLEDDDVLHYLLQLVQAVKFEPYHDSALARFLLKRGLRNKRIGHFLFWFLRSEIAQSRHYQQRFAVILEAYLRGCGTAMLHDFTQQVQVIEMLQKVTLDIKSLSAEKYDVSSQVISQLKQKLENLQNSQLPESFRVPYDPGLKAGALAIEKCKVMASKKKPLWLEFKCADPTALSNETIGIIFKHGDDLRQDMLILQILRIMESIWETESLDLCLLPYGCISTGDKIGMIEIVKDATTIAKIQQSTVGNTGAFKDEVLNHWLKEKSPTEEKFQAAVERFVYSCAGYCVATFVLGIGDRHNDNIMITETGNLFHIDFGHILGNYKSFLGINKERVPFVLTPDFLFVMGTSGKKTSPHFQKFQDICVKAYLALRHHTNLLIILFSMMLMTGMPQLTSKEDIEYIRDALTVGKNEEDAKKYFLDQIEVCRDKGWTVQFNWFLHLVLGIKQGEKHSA
# Experiment Description: PI3K-gamma fluorescence polarization assay
# Assay type: biochemical
# Setup Conditions: PI3Kγ Avg. IC50
Measured Property: IC50 (µM)

A = Cn1cc(/C=C2\Oc3cc(O)cc(O)c3C2=O)c2c(-c3ccc(C#N)nc3)cccc21
B = CNC(=O)Nc1ccc2c(c1)C(=O)/C(=C/c1c(-c3c(C)nn(C)c3C)[nH]c3c(F)c(F)c(OC)cc13)O2
C = Cc1[nH]c2ccc(Br)cc2c1/C=C1\Oc2c(ccc(O)c2O)C1=O
// ascending sort on IC50 for the entries above Provide your answer as the labels ordered per the instruction.
B, C, A
(B: 0.0705 µM, C: 2.91 µM, A: 8.53 µM)

====

# System: PI3K-gamma (Homo sapiens)
# Experiment Description: PI3K-gamma fluorescence polarization assay
# Format: biochemical
# Setup Conditions: PI3Kγ Avg. IC50
Measured Property: IC50 (nM)

1. COc1ccc2c(c1)c(C=C1Oc3cccc(O)c3C1=O)c(C)n2CCCCN1CCOCC1 [Example 136]    2480

A = COc1ccc2c(c1)c(/C=C1\Oc3cc(O)cc(O)c3C1=O)c(C1CC1)n2CC(=O)N(C)C [Example 444]
B = COc1ccc2[nH]cc(/C=C3\Oc4ccc(NC(=O)Nc5ccc(C(=O)N6CCN(C)CC6)cc5)cc4C3=O)c2c1 [Compound 643]
C = O=C1/C(=C/c2cn(CCO)c3cccc(-c4ccccc4)c23)Oc2cc(O)cc(O)c21 [Compound 478]
// ranking: key=IC50, reverse=True Provide your answer as the labels ordered per the instruction.
C, A, B
(C: 1740 nM, A: 100 nM, B: 4 nM)

a = CNC(=O)Nc1ccc2c(c1)C(=O)/C(=C/c1cn(CCCC#N)c3ccc(OC)cc13)O2 [Compound 579]
b = COc1ccc2c(c1)c(/C=C1\Oc3ccc(NC(=O)NCCCN)cc3C1=O)cn2CCN1CCN(C)CC1 [Compound 566]
Compare a and b and name the one whose reported IC50 is smaller. The response must carry the label of the picked entry.
a

====

# System: PI3K-alpha (Homo sapiens)
# Sequence (P42336 whole entry, species assumed): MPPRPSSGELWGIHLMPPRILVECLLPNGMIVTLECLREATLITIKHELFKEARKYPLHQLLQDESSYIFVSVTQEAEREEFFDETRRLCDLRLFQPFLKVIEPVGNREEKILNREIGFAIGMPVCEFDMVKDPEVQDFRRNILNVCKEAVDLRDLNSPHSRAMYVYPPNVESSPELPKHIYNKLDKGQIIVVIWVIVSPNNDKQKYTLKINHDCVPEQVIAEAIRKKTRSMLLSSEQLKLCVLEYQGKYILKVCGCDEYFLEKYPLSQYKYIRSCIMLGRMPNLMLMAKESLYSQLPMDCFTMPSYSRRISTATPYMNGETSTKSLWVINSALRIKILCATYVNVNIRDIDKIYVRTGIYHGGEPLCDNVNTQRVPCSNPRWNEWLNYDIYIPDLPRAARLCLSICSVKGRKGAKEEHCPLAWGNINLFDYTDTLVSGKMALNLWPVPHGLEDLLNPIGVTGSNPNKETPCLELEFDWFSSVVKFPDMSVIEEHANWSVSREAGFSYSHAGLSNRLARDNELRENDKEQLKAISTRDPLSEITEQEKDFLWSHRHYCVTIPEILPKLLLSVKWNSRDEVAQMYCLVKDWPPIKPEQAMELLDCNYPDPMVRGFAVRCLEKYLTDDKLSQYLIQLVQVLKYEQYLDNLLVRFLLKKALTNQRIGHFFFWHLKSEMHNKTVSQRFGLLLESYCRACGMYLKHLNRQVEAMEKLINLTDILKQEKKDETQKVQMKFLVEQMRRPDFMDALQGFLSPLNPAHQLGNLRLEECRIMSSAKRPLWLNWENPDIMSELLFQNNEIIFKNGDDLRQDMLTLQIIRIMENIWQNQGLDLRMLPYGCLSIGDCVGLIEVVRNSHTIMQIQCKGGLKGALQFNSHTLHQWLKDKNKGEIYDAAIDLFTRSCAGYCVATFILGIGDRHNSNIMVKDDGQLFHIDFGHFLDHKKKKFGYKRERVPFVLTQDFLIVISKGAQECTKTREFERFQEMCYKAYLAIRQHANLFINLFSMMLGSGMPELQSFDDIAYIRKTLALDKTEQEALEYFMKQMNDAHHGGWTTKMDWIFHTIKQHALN
# Sequence (P27986 whole entry partner, species assumed): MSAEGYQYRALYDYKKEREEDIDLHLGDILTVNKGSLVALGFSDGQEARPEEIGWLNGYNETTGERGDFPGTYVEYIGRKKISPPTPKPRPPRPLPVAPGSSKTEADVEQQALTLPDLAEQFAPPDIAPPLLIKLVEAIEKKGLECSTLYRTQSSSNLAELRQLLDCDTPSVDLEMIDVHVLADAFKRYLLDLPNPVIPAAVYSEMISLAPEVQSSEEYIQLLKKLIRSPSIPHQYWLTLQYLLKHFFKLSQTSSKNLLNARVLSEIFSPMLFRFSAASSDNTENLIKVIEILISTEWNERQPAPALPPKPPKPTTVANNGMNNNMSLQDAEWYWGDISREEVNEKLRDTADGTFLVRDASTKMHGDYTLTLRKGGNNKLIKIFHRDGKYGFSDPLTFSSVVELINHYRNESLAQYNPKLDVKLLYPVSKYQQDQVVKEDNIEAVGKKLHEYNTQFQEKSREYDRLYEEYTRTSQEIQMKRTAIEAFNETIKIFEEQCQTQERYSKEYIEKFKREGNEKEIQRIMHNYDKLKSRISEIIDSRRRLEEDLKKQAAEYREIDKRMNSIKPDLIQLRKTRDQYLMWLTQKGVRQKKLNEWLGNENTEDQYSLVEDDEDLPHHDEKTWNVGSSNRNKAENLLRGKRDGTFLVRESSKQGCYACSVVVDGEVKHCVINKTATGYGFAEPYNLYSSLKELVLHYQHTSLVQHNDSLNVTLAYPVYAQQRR
# Experiment Description: PI3K-alpha fluorescence polarization assay
# Type: biochemical
# Setup Conditions: PI3Kα Avg. IC50
Measured Property: pIC50
# pIC50 is unitless: minus log10 of the molar concentration; print number only

Example cases with answers are listed next.
1. O=C1/C(=C/c2c(-c3ccc4ccccc4c3)[nH]c3ccccc23)Oc2cc(O)cc(O)c21    6.10
2. COc1ccc2c(c1)c(C=C1Oc3cc(O)cc(O)c3C1=O)cn2C    6.98
3. COc1ccc2[nH]cc(/C=C3\Oc4cc(O)cc(O)c4C3=O)c2c1    7.52

Next compound, pIC50 to be filled in.
I'm curious: which pIC50 was measured for O=C1C(=Cc2c(-c3ccccc3)[nH]c3ccccc23)Oc2cc(O)cc(O)c21 tested on PI3K-alpha (Homo sapiens)?
5.99

====

# System: UniProtKB P42336
# Experiment Description: PI3K-alpha fluorescence polarization assay
# Format: biochemical
# Setup Conditions: PI3Kα Avg. IC50
Below, each entry is listed with its recorded pIC50.
# pIC50 is unitless: minus log10 of the molar concentration; print number only

1. Cn1c(-c2ccccc2)c(C=C2Oc3cc(O)cc(O)c3C2=O)c2ccccc21    5.57
2. CNC(=O)Oc1ccc2c(c1)C(=O)/C(=C/c1cn(CCN3CCN(C)CC3)c3ccc(OC)cc13)O2    6.20

Next compound, pIC50 to be filled in.
Reported pIC50, compound O=C1/C(=C/c2c[nH]c3ccc(Cl)cc23)Oc2cc(O)cc(O)c21 : ____
6.31

Recorded values, source patent US20090311217A1.
